System: Plasmodium berghei
Assay: Screen against P. berghei liver stage (PbLuc), transformed with Luciferase, at 10uM
Assay type: functional, HepG2
Details: tested at 10 uM
About 8,600 (12%) of roughly 69,000 compounds showed an effect of 50% or more. The sample holds strong results, similar compounds and a random draw of the others, so the mix is not that of the screen.
The reader will find reported INHIBITION values listed item by item below.
Write the answer as a number in %, unit excluded.

Consider the following illustrative entries.
• CN(Cc1nc(C2CC2)no1)C(=O)c1cccc(CC2CCNCC2)c1 = 59.7
• CCCn1nccc1-c1cc(C2CCN(C(C)=O)CC2)ccn1 = 12.3
• Cc1cnc(C)c(N2CCC3(CCCN(C4CCOCC4)C3=O)C2)n1 (stereo not drawn) = -30
• Cc1cccc(C(CNC(=O)NCc2cc[nH]n2)N2CCOCC2)c1 (stereo not drawn) = 35.95
• CC(C)(C)OC(=O)NCCNC(=O)c1ccc(-c2ccco2)[nH]c1=O = 7.12

Which INHIBITION value is on record for COc1ccc(Br)cc1SCCS(C)(=O)=O ?
29

Which INHIBITION value is on record for Cc1cc(C)c(CNC(=O)NCc2ccc(F)cc2)c(=O)[nH]1 ?
27.6

Which INHIBITION value is on record for CC(SCCS(C)(=O)=O)c1nc(Cc2ccc(F)cc2)no1 (stereo not drawn) ?
12.4

Which INHIBITION value is on record for O=C(c1cc[nH]n1)N1CCCC(c2cccc(-n3ccnc3)n2)C1 (stereo not drawn) ?
14.4

Which INHIBITION value is on record for CC(=O)N1CCCC(c2cccc(-n3ccnc3)n2)C1 (stereo not drawn) ?
36.7

Which INHIBITION value is on record for Cc1nc(C(=O)N2CCCC(c3cccc(-n4ccnc4)n3)C2)co1 (stereo not drawn) ?
29.6

Which INHIBITION value is on record for CCCC(NC(=O)c1cncc(C)c1)c1nnn[nH]1 (stereo not drawn) ?
23.5

Which INHIBITION value is on record for CCCN(CC(=O)N1CCNCC1)C(=O)c1cccc(Cl)c1 ?
13.5

Which INHIBITION value is on record for Cc1noc(-c2cccnc2N(C)Cc2cscn2)n1 ?
68.8

Which INHIBITION value is on record for CC(C)OCCCN(CC(=O)N1CCNCC1)C(=O)c1cccc(Cl)c1 ?
25.9

* * *

Test system: Plasmodium berghei
Assay: Screen against P. berghei liver stage (PbLuc), transformed with Luciferase, at 10uM
Assay type: functional, HepG2
Conditions: tested at 10 uM
The whole screen tested about 69,000 compounds, of which about 8,600 (12%) showed an effect of 50% or more. Many of the other results were omitted from the sample, so strong results are more common in it than they were.
Measure: INHIBITION (%)
Write the answer as a number in %, unit excluded.

Consider the following illustrative entries.
* CCCN(CCOC)c1nc(C)nc2sccc12 | 53.9
* Cc1cc(N2CCCN(C(=O)Cc3cccnc3)CC2)ccn1 | 58.6
* COCC1CC2(CCN(Cc3cnn(C)c3)CC2)CN1C(C)C (stereo not given) | 37.5
* CCOCCCC(=O)NCc1ccc(N2CCCCC2)cc1 | 42.7
* CCOCCC(=O)Nc1cc(C(N)=O)ccc1N1CCCC(C)C1 (stereo not given) | 73

Which INHIBITION value is on record for Cc1cc(N2CCCN(C(=O)Cc3ccc(O)c(Cl)c3)CC2)ccn1 ?
65.1

Which INHIBITION value is on record for Cc1nnc(CN(C)C2CCN(CCc3ccccn3)CC2)o1 ?
21.5

Which INHIBITION value is on record for CCn1cc(NC(=O)NCC(O)COc2ccccc2)cn1 (stereo not given) ?
60.5

Which INHIBITION value is on record for O=C(c1cncs1)N1CCC(Cc2cnc3[nH]ccc3c2)CC1 ?
64.1

Which INHIBITION value is on record for CN(Cc1cc(Br)cn1C)C(=O)c1ccsc1 ?
-82.2

Which INHIBITION value is on record for Cc1ccc(O)c(CNc2cccc(OCCF)c2)n1 ?
9.91

Which INHIBITION value is on record for CCc1cc(NC(=O)c2cccc(OCC(F)(F)F)n2)[nH]n1 ?
-20.8

Which INHIBITION value is on record for CCNC(=O)N1CCC(=Cc2ccccc2)CC1 ?
63.3

* * *

Tested on: Plasmodium berghei
Experiment: Screen against P. berghei liver stage (PbLuc), transformed with Luciferase, at 10uM
Assay type: functional, HepG2
Details: tested at 10 uM
Out of some 69,000 compounds screened, about 8,600 (12%) showed an effect of 50% or more. The sample holds strong results, similar compounds and a random draw of the others, so the mix is not that of the screen.
The reader will find reported INHIBITION values listed item by item below.
Write the answer as a number in %, unit excluded.

Consider the following illustrative entries.
• O=C(NCc1ccoc1)Nc1cc(C(F)(F)F)c[nH]c1=O = -45.5
• Nc1cc(-c2nccnc2N2CCCC2)c2cc[nH]c2n1 = 58.3
• Cc1ncsc1C(=O)N1CCC(c2ccc3c(NC(C)C)n[nH]c3n2)C1 (configuration not stated) = -3.94

Which INHIBITION value is on record for CC(C)c1ccc(O)c(C(=O)NCc2cc[nH]n2)c1 ?
12.8

Which INHIBITION value is on record for CC(=O)N1CCC1c1cc(N2CCSCC2)nc(C)n1 (configuration not stated) ?
29.5

Which INHIBITION value is on record for COCC(=O)N1CCC2(CC1)C(=O)N(Cc1cccnc1)CCN2C ?
43.2

Which INHIBITION value is on record for CSc1nc2ccsc2c(=O)n1CC(=O)NC1CCCC1 ?
-58.7

Which INHIBITION value is on record for Nc1cc(-c2ccc(C(=O)O)cc2O)c2cc[nH]c2n1 ?
2.91

Which INHIBITION value is on record for CN(C)c1ccnc(C2CCCN2)n1 (configuration not stated) ?
10.45

Which INHIBITION value is on record for CCN(c1ccc(C(=O)NCc2ccnc(C)n2)cc1)C(C)C ?
0.433

Which INHIBITION value is on record for CC1c2ncc(CNC(=O)C3CC3)n2CCN1Cc1nccs1 (configuration not stated) ?
-4.32

Which INHIBITION value is on record for CCN(CC)c1nc2ccsc2c(=O)n1CCC(=O)NC1CCCC1 ?
58.4

Which INHIBITION value is on record for COCC1CN(Cc2ccc(C)o2)Cc2nnn(CC3CC3)c21 (configuration not stated) ?
-8.19

Which INHIBITION value is on record for CC(=O)N[C@@H]1C[C@H](c2ccc(OCCO)cc2)OC2(CCOCC2)C1 ?
18.3

Which INHIBITION value is on record for CN(C)Cc1ccnc(C2CN(Cc3nccs3)CCO2)n1 (configuration not stated) ?
35.2

Which INHIBITION value is on record for O=C(O)CNc1cc(-c2cc(C3CC3)ncn2)c2cc[nH]c2n1 ?
19.5

Which INHIBITION value is on record for CCN(CC)c1nc2ccsc2c(=O)n1CCC(=O)NCc1ccco1 ?
55.7

* * *

Tested on: Plasmodium berghei
Assay: Screen against P. berghei liver stage (PbLuc), transformed with Luciferase, at 10uM
Format: functional, HepG2
Settings: tested at 10 uM
Out of some 69,000 compounds screened, about 8,600 (12%) showed an effect of 50% or more. This excerpt belongs to a sample that is enriched for strong results.
Measure: INHIBITION (%)
Write the answer as a number in %, unit excluded.

* CCCn1ncc(C(=O)N(C)Cc2cc(C3CC3)[nH]n2)c1C | 40.6

Which INHIBITION value is on record for O=C(c1csc(C2CC2)n1)N1CCCCC1Cn1cccn1 (stereo not drawn) ?
52.5

Which INHIBITION value is on record for CN(Cc1cc(C2CC2)on1)C(=O)C(c1cccnc1)N1CCCC1 (stereo not drawn) ?
48.9

* * *

Test system: Plasmodium berghei
Experiment: Screen against P. berghei liver stage (PbLuc), transformed with Luciferase, at 10uM
Assay type: functional, HepG2
Conditions: tested at 10 uM
Hit rate of the full screen: of about 69,000 compounds, about 8,600 (12%) showed an effect of 50% or more. What follows is part of a selection rich in strong results, with near analogues and random picks from the rest.
The reader will find reported INHIBITION values listed item by item below.
Write the answer as a number in %, unit excluded.

Consider the following illustrative entries.
• CN1CCCN(C(=O)NCc2cc(Br)cs2)CC1 = -13.935
• CC(C)c1cc(=O)[nH]c(-c2ccccc2CN2CCCC2C)n1 (stereo not drawn) = 31.8
• COc1ccccc1C(C)N1CCN(S(=O)(=O)N(C)C)CC1 (stereo not drawn) = 14.7
• CSC(C)C(=O)NS(=O)(=O)c1ccc(F)c(C(F)(F)F)c1 (stereo not drawn) = 25
• CC(C(=O)NCc1ccnc(N2CCN(C)CC2)c1)S(C)(=O)=O (stereo not drawn) = 23.333
• Cc1cc(C(F)F)nn1C(C)C(=O)NCc1ncc[nH]1 (stereo not drawn) = -1.21

Which INHIBITION value is on record for O=c1[nH]c(-c2ccccc2)nc2c1CCN(S(=O)(=O)N1CCCC1)C2 ?
9

Which INHIBITION value is on record for Cc1cc(C)nc(Nc2cc(C3CCCN(C)C3)nc(C)n2)n1 (stereo not drawn) ?
46.1

Which INHIBITION value is on record for CN1CCN(C(=O)c2ncn3c2CN(C)S(=O)(=O)c2ccccc2-3)CC1 ?
-79.8

Which INHIBITION value is on record for O=C(NCC1CCOCC1)[C@@H]1C[C@@H]2[C@@H](CCN2Cc2nccs2)O1 ?
21.1

Which INHIBITION value is on record for c1ccc(Cc2nnc(CN3CCCC(Cn4cncn4)C3)o2)cc1 (stereo not drawn) ?
-15.3

Which INHIBITION value is on record for O=C(Nc1ccccc1)C1CN(CC2CC2)CC12CCOCC2 (stereo not drawn) ?
4.2

Which INHIBITION value is on record for COc1ccccc1C(C)N1CCN(S(C)(=O)=O)CC1 (stereo not drawn) ?
51.1
